# Test system: PLOD-2
# Assay: PLOD-2 expression by qRT-PCR versus other anti-aging actives (Example 5)
# Assay type: cell-based, Human
# Conditions Used: concentrations as in Table 5
Measurement Type: induction of a significant level of PLOD-2 in skin cells

compound="COc1ccc(Cc2nc(=O)c(CCC(=O)N3CCC(C)CC3)n[nH]2)cc1OC [ALB-H09784893]" assay_value="significantly stimulate"
compound="N#Cc1cccc(CN2CCNC(=O)CC2c2nccs2)c1 (stereo not drawn) [ALB-H16063163]" assay_value="significantly stimulate"
